System: HBV rcDNA
TEST_DESCRIPTION: HepDE19 assay with bDNA quantitation of HBV rcDNA
Assay type: cell-based, hepatitis B virus
CONDITION_DESCRIPTION: HepDE19 cells, Tet-free medium, 7 day-incubation, rcDNA measured by Quantigene 2.0 bDNA assay, top concentration 25 μM; read-out: DE-19 bDNA EC50
REPORTED_PROPERTY: pEC50
Remember, pEC50 is on a log scale: it is -log10 of the molar concentration.

The following molecules have reported results that may help.
Cn1cc2c(c1C(=O)Nc1ccc(F)c(Cl)c1)CCC2NC(=O)OCc1ccccn1 (stereo not shown) [Compound 6]	6.85
Cn1cc2c(c1C(=O)Nc1ccc(F)c(Cl)c1)CCC2NC(=O)OCc1cnco1 (single isomer, unassigned) [Compound 36]	7.70
Cn1cc2c(c1C(=O)Nc1ccc(F)c(Cl)c1)CCC2NC(=O)OCC1(C(N)=O)CC(F)(F)C1 (single isomer, unassigned) [Compound 56]	6.22
C#CCOC(=O)NC1CCc2c1cn(C)c2C(=O)Nc1ccc(F)c(Cl)c1 (single isomer, unassigned) [Compound 101]	5.80
Cn1cc2c(c1C(=O)Nc1ccc(F)c(Cl)c1)CCC2NC(=O)OC[C@H]1CCC(=O)N1 (single isomer, unassigned) [Compound 120]	6.68

Proceed to the following item.
What value of pEC50 has been reported for the following molecule? Cc1c2c(c(C(=O)Nc3ccc(F)c(Cl)c3)n1C)CCC2NC(=O)OCc1c[nH]nn1 (single isomer, unassigned) [Compound 130]
5.05

###

Tested on: HBV rcDNA
TEST_DESCRIPTION: HepDE19 assay with bDNA quantitation of HBV rcDNA
Format: cell-based, hepatitis B virus
CONDITION_DESCRIPTION: HepDE19 cells, Tet-free medium, 7 day-incubation, rcDNA measured by Quantigene 2.0 bDNA assay, top concentration 25 μM; read-out: DE-19 bDNA EC50
REPORTED_PROPERTY: pEC50
Remember, pEC50 is on a log scale: it is -log10 of the molar concentration.

The following compounds have reported results that may help.
Cn1cc2c(c1C(=O)Nc1ccc(F)c(Cl)c1)CCC2NC(=O)OCCC#N (single isomer, unassigned) [Compound 49]	7.22
CCn1cc2c(c1C(=O)Nc1ccc(F)c(Cl)c1)CCC2NS(=O)(=O)C1CC1 (single isomer, unassigned) [Compound 16]	6.89
Cn1cc2c(c1C(=O)Nc1ccc(F)c(Cl)c1)CCCCC2N (stereo not shown)	5.80

What value of pEC50 has been reported for the following compound? Cn1ncc(COC(=O)NC2CCc3c2cn(C)c3C(=O)Nc2ccc(F)c(Cl)c2)n1 (single isomer, unassigned) [Compound 128]
5.77

###

// reported pEC50 for each item listed
System: HBV rcDNA
TEST_DESCRIPTION: HepDE19 assay with bDNA quantitation of HBV rcDNA
Type: cell-based, hepatitis B virus
CONDITION_DESCRIPTION: HepDE19 cells, Tet-free medium, 7 day-incubation, rcDNA measured by Quantigene 2.0 bDNA assay, top concentration 25 μM; read-out: DE-19 bDNA EC50
Remember, pEC50 is on a log scale: it is -log10 of the molar concentration.

The following molecules have reported results that may help.
Cn1cc2c(c1C(=O)Nc1ccc(F)c(Cl)c1)CCC2NC(=O)C1CC1 (single isomer, unassigned) [Compound 23]	6.92
Cn1cc2c(c1C(=O)Nc1ccc(F)c(Cl)c1)CCC2NC(=O)OCc1ncco1 (single isomer, unassigned) [Compound 34]	7.10

What value of pEC50 has been reported for the following molecule? CCn1cc2c(c1C(=O)Nc1ccc(F)c(Cl)c1)CCC2NC(=O)OCc1ccn(C)n1 (single isomer, unassigned) [Compound 27]
5.82

Where these numbers come from: patent US11566002B2
